Quick reference: pIC50 of the listed items.
molecular target: Integrin alpha-4/beta-1 (Homo sapiens, UniProt P05556+P13612); experiment: Inhibition of integrin alpha4-beta1 binding to VCAM-Ig; type: protein-complex assay
Sequence (P05556 whole entry): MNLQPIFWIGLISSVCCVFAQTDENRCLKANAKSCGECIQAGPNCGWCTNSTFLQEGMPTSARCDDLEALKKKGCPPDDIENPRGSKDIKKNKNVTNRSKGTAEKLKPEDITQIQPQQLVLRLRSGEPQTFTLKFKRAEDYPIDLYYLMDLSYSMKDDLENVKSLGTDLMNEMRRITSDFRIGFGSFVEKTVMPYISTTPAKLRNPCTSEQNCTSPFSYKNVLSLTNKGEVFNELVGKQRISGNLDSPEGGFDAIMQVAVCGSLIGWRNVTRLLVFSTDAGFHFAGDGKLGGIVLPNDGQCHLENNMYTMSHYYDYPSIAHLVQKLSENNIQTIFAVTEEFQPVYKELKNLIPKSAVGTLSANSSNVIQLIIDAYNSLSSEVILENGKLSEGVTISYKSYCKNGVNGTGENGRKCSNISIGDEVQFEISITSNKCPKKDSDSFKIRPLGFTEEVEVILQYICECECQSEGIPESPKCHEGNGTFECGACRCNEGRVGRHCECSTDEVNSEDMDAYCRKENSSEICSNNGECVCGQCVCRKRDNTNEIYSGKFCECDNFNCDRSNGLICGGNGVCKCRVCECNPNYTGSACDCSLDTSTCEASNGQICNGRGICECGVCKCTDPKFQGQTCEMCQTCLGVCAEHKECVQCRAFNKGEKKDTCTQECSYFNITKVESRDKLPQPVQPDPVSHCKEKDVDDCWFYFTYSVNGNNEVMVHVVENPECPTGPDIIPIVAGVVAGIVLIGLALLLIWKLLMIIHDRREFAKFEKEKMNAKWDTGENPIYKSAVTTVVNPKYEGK
Sequence (P13612 whole entry): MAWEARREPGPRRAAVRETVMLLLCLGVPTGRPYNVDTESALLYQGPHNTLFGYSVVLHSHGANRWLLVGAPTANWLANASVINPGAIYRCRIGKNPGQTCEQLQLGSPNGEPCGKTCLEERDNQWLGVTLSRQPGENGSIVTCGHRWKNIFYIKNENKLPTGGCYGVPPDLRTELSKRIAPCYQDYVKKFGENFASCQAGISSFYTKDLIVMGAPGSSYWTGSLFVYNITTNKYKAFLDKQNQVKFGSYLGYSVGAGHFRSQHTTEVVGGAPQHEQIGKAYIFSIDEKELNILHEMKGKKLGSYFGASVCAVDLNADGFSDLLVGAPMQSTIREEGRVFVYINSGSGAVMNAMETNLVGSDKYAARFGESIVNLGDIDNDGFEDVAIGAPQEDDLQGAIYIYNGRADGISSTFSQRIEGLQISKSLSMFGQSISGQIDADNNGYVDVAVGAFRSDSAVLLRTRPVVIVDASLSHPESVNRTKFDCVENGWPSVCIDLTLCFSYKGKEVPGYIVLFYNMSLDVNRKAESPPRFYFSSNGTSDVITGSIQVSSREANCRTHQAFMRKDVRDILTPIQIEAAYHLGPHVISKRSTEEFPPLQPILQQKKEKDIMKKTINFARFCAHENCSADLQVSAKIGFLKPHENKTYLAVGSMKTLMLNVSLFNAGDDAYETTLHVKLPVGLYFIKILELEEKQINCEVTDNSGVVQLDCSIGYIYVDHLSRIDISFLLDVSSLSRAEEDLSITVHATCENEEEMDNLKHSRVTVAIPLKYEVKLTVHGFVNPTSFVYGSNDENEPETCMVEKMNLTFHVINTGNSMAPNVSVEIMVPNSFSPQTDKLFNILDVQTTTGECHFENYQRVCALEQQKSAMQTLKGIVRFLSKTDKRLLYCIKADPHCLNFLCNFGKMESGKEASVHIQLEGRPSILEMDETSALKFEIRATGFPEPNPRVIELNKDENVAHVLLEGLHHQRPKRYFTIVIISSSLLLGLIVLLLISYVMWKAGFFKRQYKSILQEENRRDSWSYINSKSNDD
*1 amine or outer side, *2 acyl side, *3 side chain or, on linkers, in order; H or OH if unused. Where a SMILES comes first, the peptide text is derived from it. [ ]: non-standard residue; d: D form. The star is where a group is joined. X1 = O=C(Cc1ccc(N[*:1])cc1)[*:2]; NH(2-Me-phenyl) = Cc1ccccc1N*; PhAc = O=C(Cc1ccccc1)*; CO = O=C([*:1])[*:2]
// returns pIC50 (minus log10 of molar concentration), number only

>>> number("Cc1ccccc1NC(=O)Nc1ccc(CC(=O)N[C@@H](CC(C)C)C(=O)N[C@@H](CC(=O)O)C(=O)N[C@H](C(=O)N2CCC[C@H]2C(=O)N[C@@H](CO)C(=O)N[C@H](C(=O)O)[C@@H](C)O)C(C)C)cc1 ({NH(2-Me-phenyl)-CO}-[X1]LDVPST-OH)")
9.00
>>> number("CC(C)C[C@H](NC(=O)Cc1ccc(O)cc1)C(=O)N[C@@H](CC(=O)O)C(=O)N[C@H](C(=O)O)C(C)C")
6.37
>>> number("CC(C)C[C@H](NC(=O)Cc1ccc(NC(=O)OCc2ccccc2)cc1)C(=O)N[C@@H](CC(=O)O)C(=O)N[C@H](C(=O)O)C(C)C")
7.52
>>> number("CC(C)C[C@H](NC(=O)[C@@H](N)Cc1ccc(O)cc1)C(=O)N[C@@H](CC(=O)O)C(=O)N[C@H](C(=O)O)C(C)C (H-YLDV-OH)")
4.90
>>> number("CC(C)C[C@H](NC(=O)Cc1ccccc1)C(=O)N[C@@H](CC(=O)O)C(=O)N[C@H](C(=O)O)C(C)C (PhAc-Leu-Asp-Val-OH)")
6.00

Please turn your attention to the following entry.
Write pIC50 of "Cc1ccccc1NC(=O)Nc1ccc(CC(=O)N[C@@H](CC(C)C)C(=O)N[C@@H](CC(=O)O)C(=O)N[C@H](C(=O)O)C(C)C)cc1" ; system used: Integrin alpha-4/beta-1 (Homo sapiens, UniProt P05556+P13612) 9.22

====

molecular target: Integrin alpha-4/beta-1 (Homo sapiens, UniProt P05556+P13612); assay: Inhibition of integrin alpha4-beta1 binding to VCAM-Ig; format: protein-complex assay
*1 amine or outer side, *2 acyl side, *3 side chain or, on linkers, in order; H or OH if unused. Where a SMILES comes first, the peptide text is derived from it. [ ]: non-standard residue; d: D form. The star is where a group is joined. X1 = O=C(Cc1ccc(N[*:1])cc1)[*:2]; NH(2-Me-phenyl) = Cc1ccccc1N*; CO = O=C([*:1])[*:2]; Ahx = NCCCCCC(=O)O
VALUE KIND: IC50 (nM)
Your answer should be a plain number; it is taken to be in nM.

Reference set, count: 2
>>> number("Cc1ccccc1NC(=O)Nc1ccc(CC(=O)N[C@@H](CCCCNC(=O)CCCCCN)C(=O)N[C@@H](CC(=O)O)C(=O)N[C@H](C(=O)N2CCC[C@H]2C(=O)O)C(C)C)cc1 ({NH(2-Me-phenyl)-CO}-[X1]K(Ahx)DVP-OH)")
4
>>> number("CC(C)C[C@H](NC(=O)Cc1ccc(NC(=O)c2ccccc2)cc1)C(=O)N[C@@H](CC(=O)O)C(=O)N[C@H](C(=O)O)C(C)C")
295

Please turn your attention to the following entry.
Supply IC50 value. Item: "Cc1ccccc1NC(=O)Nc1ccc(CC(=O)N[C@@H](CC(C)C)C(=O)N[C@@H](CC(=O)O)C(=O)O)cc1" 18

====

target: Intercellular adhesion molecule (ICAM-1), Integrin alpha-L/beta-2 (Homo sapiens, UniProt P05107+P05362+P20701); experiment: Inhibition of ICAM-1 transfected CHO cell adhesion to integrin alphaL-beta2 of human JY cells; assay type: cell-based
*1 amine or outer side, *2 acyl side, *3 side chain or, on linkers, in order; H or OH if unused. Where a SMILES comes first, the peptide text is derived from it. [ ]: non-standard residue; d: D form. The star is where a group is joined. X1 = O=C(Cc1ccc(N[*:1])cc1)[*:2]; NH(2-Me-phenyl) = Cc1ccccc1N*; CO = O=C([*:1])[*:2]
VALUE KIND: IC50

>>> result("Cc1ccccc1NC(=O)Nc1ccc(CC(=O)N[C@@H](CC(C)C)C(=O)N[C@@H](CC(=O)O)C(=O)N[C@H](C(=O)N2CCC[C@H]2C(=O)O)C(C)C)cc1 ({NH(2-Me-phenyl)-CO}-[X1]LDVP-OH)")
"> 100 µM"
>>> result("Cc1ccccc1NC(=O)Nc1ccc(CC(=O)N[C@@H](CC(C)C)C(=O)N[C@@H](CC(=O)O)C(=O)O)cc1")
"> 100 µM"

Please turn your attention to the following entry.
Supply IC50 value. Item: "Cc1ccccc1NC(=O)Nc1ccc(CC(=O)N[C@@H](CC(C)C)C(=O)N[C@@H](CC(=O)O)C(=O)N[C@H](C(=O)O)C(C)C)cc1" > 50 µM

====

molecular target: Integrin alpha-IIb/beta-3 (Homo sapiens, UniProt P05106+P08514); assay: Inhibition of integrin alphaIIb-beta3 adhesion to human citreated platelets
Sequence (P05106 27-788 limits assumed): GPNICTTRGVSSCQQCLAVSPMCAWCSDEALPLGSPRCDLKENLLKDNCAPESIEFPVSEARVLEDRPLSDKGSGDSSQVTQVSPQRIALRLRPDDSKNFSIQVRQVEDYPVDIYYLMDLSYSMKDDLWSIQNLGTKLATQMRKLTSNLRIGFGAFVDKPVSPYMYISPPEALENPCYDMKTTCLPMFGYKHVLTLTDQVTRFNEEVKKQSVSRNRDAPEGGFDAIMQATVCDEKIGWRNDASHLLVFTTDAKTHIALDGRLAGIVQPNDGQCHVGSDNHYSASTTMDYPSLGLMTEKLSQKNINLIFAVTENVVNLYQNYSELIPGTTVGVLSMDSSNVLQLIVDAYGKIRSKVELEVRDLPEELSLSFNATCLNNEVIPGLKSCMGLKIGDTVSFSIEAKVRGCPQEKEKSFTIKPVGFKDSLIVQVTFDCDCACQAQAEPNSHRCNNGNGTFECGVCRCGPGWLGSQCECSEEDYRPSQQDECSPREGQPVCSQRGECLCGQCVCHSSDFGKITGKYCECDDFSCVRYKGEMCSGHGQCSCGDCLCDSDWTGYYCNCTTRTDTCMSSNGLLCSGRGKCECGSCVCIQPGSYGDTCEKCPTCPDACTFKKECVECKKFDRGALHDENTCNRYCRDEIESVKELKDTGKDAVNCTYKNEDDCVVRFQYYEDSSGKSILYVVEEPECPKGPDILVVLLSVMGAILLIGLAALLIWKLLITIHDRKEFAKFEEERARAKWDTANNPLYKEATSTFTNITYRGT
Sequence (P08514 32-887 limits assumed): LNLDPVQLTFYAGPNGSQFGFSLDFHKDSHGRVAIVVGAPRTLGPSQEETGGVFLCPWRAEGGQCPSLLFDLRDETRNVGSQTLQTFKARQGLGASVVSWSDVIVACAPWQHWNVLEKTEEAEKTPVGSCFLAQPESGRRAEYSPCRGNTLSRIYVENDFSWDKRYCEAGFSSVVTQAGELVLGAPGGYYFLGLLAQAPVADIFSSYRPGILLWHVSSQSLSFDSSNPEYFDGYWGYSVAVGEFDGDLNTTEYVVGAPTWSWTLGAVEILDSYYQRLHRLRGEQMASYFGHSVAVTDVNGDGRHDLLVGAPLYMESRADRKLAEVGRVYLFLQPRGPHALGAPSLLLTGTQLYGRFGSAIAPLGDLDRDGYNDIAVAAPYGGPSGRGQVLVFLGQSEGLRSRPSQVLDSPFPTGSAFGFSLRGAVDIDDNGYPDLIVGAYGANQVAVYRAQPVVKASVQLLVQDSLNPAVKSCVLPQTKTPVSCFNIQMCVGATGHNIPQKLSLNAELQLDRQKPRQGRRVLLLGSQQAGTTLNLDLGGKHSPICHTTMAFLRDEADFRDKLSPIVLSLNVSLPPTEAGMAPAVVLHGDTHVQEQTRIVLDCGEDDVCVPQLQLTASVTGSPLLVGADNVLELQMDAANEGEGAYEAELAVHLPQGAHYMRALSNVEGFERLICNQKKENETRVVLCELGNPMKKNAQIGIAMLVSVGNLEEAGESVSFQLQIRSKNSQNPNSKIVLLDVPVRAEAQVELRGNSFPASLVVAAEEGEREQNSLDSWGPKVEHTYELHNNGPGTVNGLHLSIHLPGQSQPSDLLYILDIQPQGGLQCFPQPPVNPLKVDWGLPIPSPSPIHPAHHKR
Sequence (P08514 891-1039 limits assumed): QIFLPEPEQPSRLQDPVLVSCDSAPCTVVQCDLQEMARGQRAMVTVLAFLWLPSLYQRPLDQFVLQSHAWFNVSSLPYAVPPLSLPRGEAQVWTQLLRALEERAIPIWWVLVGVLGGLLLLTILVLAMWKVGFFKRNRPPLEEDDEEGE
*1 amine or outer side, *2 acyl side, *3 side chain or, on linkers, in order; H or OH if unused. Where a SMILES comes first, the peptide text is derived from it. [ ]: non-standard residue; d: D form. The star is where a group is joined. X1 = O=C(Cc1ccc(N[*:1])cc1)[*:2]; NH(2-Me-phenyl) = Cc1ccccc1N*; CO = O=C([*:1])[*:2]
VALUE KIND: IC50

>>> result("Cc1ccccc1NC(=O)Nc1ccc(CC(=O)N[C@@H](CC(C)C)C(=O)N[C@@H](CC(=O)O)C(=O)N[C@H](C(=O)N2CCC[C@H]2C(=O)O)C(C)C)cc1 ({NH(2-Me-phenyl)-CO}-[X1]LDVP-OH)")
"> 100 µM"
>>> result("Cc1ccccc1NC(=O)Nc1ccc(CC(=O)N[C@@H](CC(C)C)C(=O)N[C@@H](CC(=O)O)C(=O)N[C@H](C(=O)O)C(C)C)cc1")
"> 100 µM"

Please turn your attention to the following entry.
Supply IC50 value. Item: "Cc1ccccc1NC(=O)Nc1ccc(CC(=O)N[C@@H](CC(C)C)C(=O)N[C@@H](CC(=O)O)C(=O)O)cc1" > 100 µM

====

target: Integrin alpha-4/beta-1 (Homo sapiens, UniProt P05556+P13612); experiment: Inhibition of integrin alpha4-beta1 adhesion to Jurkat cells; assay type: cell-based
*1 amine or outer side, *2 acyl side, *3 side chain or, on linkers, in order; H or OH if unused. Where a SMILES comes first, the peptide text is derived from it. [ ]: non-standard residue; d: D form. The star is where a group is joined. X1 = O=C(Cc1ccc(N[*:1])cc1)[*:2]; NH(2-Me-phenyl) = Cc1ccccc1N*; PhAc = O=C(Cc1ccccc1)*; CO = O=C([*:1])[*:2]; Ahx = NCCCCCC(=O)O
VALUE KIND: pIC50
// returns pIC50 (minus log10 of molar concentration), number only

Reference set, count: 8
>>> number("Cc1ccccc1NC(=O)Nc1ccc(CC(=O)N[C@@H](CC(C)C)C(=O)N[C@@H](CC(=O)O)C(=O)N[C@H](C(=O)N2CCC[C@H]2C(=O)N[C@@H](CO)C(=O)N[C@H](C(=O)O)[C@@H](C)O)C(C)C)cc1 ({NH(2-Me-phenyl)-CO}-[X1]LDVPST-OH)")
8.30
>>> number("CC(C)C[C@H](NC(=O)Cc1ccccc1)C(=O)N[C@@H](CC(=O)O)C(=O)N[C@H](C(=O)O)C(C)C (PhAc-Leu-Asp-Val-OH)")
4.40
>>> number("Cc1ccccc1NC(=O)Nc1ccc(CC(=O)N[C@@H](CC(C)C)C(=O)N[C@@H](CC(=O)O)C(=O)N[C@H](C(=O)O)C(C)C)cc1")
8.22
>>> number("CC(C)C[C@H](NC(=O)Cc1ccc(NC(=O)OCc2ccccc2)cc1)C(=O)N[C@@H](CC(=O)O)C(=O)N[C@H](C(=O)O)C(C)C")
6.70
>>> number("CC(C)C[C@H](NC(=O)[C@@H](N)Cc1ccc(O)cc1)C(=O)N[C@@H](CC(=O)O)C(=O)N[C@H](C(=O)O)C(C)C (H-YLDV-OH)")
4.29
>>> number("CC(C)C[C@H](NC(=O)Cc1ccc(NC(=O)c2ccccc2)cc1)C(=O)N[C@@H](CC(=O)O)C(=O)N[C@H](C(=O)O)C(C)C")
5.49
>>> number("CC(C)C[C@H](NC(=O)Cc1ccc(NC(=O)Nc2ccccc2)cc1)C(=O)N[C@@H](CC(=O)O)C(=O)N[C@H](C(=O)O)C(C)C")
7.52
>>> number("Cc1ccccc1NC(=O)Nc1ccc(CC(=O)N[C@@H](CC(C)C)C(=O)N[C@@H](CC(=O)O)C(=O)N[C@H](C(=O)N2CCC[C@H]2C(N)=O)C(C)C)cc1 ({NH(2-Me-phenyl)-CO}-[X1]LDVP-NH2)")
8.10

Supply pIC50 value. Item: "Cc1ccccc1NC(=O)Nc1ccc(CC(=O)N[C@@H](CC(C)C)C(=O)N[C@@H](CC(=O)O)C(=O)O)cc1" 7.17

Supply pIC50 value. Item: "CC(C)C[C@H](NC(=O)Cc1ccc(O)cc1)C(=O)N[C@@H](CC(=O)O)C(=O)N[C@H](C(=O)O)C(C)C" 5.30

Supply pIC50 value. Item: CC[C@H](C)[C@H](N)C(=O)N[C@@H](CC(C)C)C(=O)N[C@@H](CC(=O)O)C(=O)N[C@H](C(=O)O)C(C)C (H-ILDV-OH) 3.76

Supply pIC50 value. Item: Cc1ccccc1NC(=O)Nc1ccc(CC(=O)N[C@@H](CCCCNC(=O)CCCCCN)C(=O)N[C@@H](CC(=O)O)C(=O)N[C@H](C(=O)N2CCC[C@H]2C(=O)O)C(C)C)cc1 ({NH(2-Me-phenyl)-CO}-[X1]K(Ahx)DVP-OH) 7.70
